# measurementTarget: Taq G59W (Thermus aquaticus, UniProt P19821 1-832, G59W)
# assay: EMSA; 95 mM KCl (Methods: all assays with Taq mutants); text gives 91 nM; 0.25 nM hairpin, 0.5-1000 nM enzyme, 1x Taq buffer (50 mM KCl for wild type, 95 mM KCl for mutants; full composition and pH not stated for this assay), 37 C, 30
# testContext: protein: recombinant, label: 5' 33P, recessed 3' end, 5' overhang
measuredQuantity: pKd
Answers are plain numbers, as −log10 of the molar value.

QUERY: Given the entry hairpin primer-template (structured_DNA, 3' end blocked with dideoxy TMP (3' ddT; unclear whether the printed 3' T is the ddT or it is added)) DNA: CTCCAGACACGACGCAGTTGCCCGATGGTCGACGTTCGCGAAAGCGAACGTCGACCATCGGGCAACT , report its measured pKd.
RESULT: 7.04
